# System: MDA-MB-231 breast
# procedure_summary: NCI-60 one-dose screen, 48 h
# condition_description: 10 µM unless noted
About 83,000 compounds went through this panel and 20% of them were active in at least one assay; those are over-represented in the sample as a whole. The source made the active and inactive calls. How the source made its calls: active means growth percent below 10; inactive means the rest.
Allowed answers: active, inactive

Solved entries:
> print(dat)
                                   compound  class.name
1  O=C(CN1CCOCC1)Nc1ccc2ncnc(Nc3ccc(OCc4cccc(F)c4)c(Cl)c3)c2c1    inactive
2  COc1ccc(C(=O)/C=C/c2c(OC)cc(OC)cc2OC)c(OC)c1    inactive
3  COc1ccc(C2=NN(C(C)=O)C(c3cn(Cc4ccc(Cl)cc4)c4ccccc34)C2)cc1 (stereo not drawn)    inactive
4  CNC(=O)c1c(NC(=O)c2ccc(C(C)C)cc2)sc2c(CN(C)C)c(O)ccc12    inactive
5  COc1ccc2c(c1)c(CC(=O)NCCOCCOCC(=O)Nc1ccc(OC)c(C(N)=O)c1O)c(C)n2C(=O)c1ccc(Cl)cc1    inactive

# input What did this assay record as the result for `FCc1nc2nc(Cl)c(Cl)nc2[nH]1` ?
# output inactive

# input What did this assay record as the result for `Cc1ccc(-c2csc(/N=C3\C(=O)Nc4ccccc43)n2)cc1` ?
# output inactive

# input What did this assay record as the result for `COc1ccc(-c2c[nH]c(C(=O)O)c2-c2cc(OC)c3c(c2OC)OCO3)cc1` ?
# output inactive

# input What did this assay record as the result for `FC(F)(F)Oc1cccc(-c2cc(NCCCCCCNc3cc(-c4cccc(OC(F)(F)F)c4)nc4ccc(N5CCCC5)cc34)c3cc(N4CCCC4)ccc3n2)c1` ?
# output active

# input What did this assay record as the result for `Nc1nnc2cc(Cl)ccc2n1` ?
# output inactive

# input What did this assay record as the result for `Cc1[nH]n(C(=O)c2ccncc2)c(=O)c1N=Nc1ccc(F)c(Cl)c1` ?
# output inactive

# input What did this assay record as the result for `COc1cc2c(cc1[N+](=O)[O-])-c1ccc([N+](=O)[O-])cc1/C2=N/NC(N)=S` ?
# output inactive

# input What did this assay record as the result for `Cn1c(COC(=O)NCCN2CCOCC2)nc2c(N3CCOCC3)nc(-c3ccccc3)nc21` ?
# output active

# input What did this assay record as the result for `CC(=O)[C@@H]1CC[C@]2(C(=O)n3ccnc3)CC[C@]3(C)[C@H](CC[C@@H]4[C@@]5(C)Cc6c([nH]c7ccccc67)C(C)(C)[C@@H]5CC[C@]43C)[C@@H]12` ?
# output inactive

# input What did this assay record as the result for `Cc1ccc(C(c2c(O)c3cc(Br)ccc3[nH]c2=O)c2c(O)c3cc(Br)ccc3[nH]c2=O)cc1` ?
# output inactive

# input What did this assay record as the result for `COc1ccc(Cn2nc(-c3ccccc3)c3c2CCc2cnoc2-3)cc1` ?
# output inactive

# input What did this assay record as the result for `NC(=O)c1cccc(-c2cc(C(N)=O)ccc2Cl)c1` ?
# output inactive

# input What did this assay record as the result for `O=S(=O)(c1ccccc1)N1CCCc2ccccc21` ?
# output inactive

* * *

# Tested on: HT29 colon
# procedure_summary: NCI-60 one-dose screen, 48 h
# condition_description: 10 µM unless noted
This is part of a sample that, as a whole, favours compounds with a hit. Of some 83,000 tested, about 20% had one in any assay. Calls of active or inactive are those of the source. How the source made its calls: active means growth percent below 10; inactive means the rest.
Allowed answers: yes for active, no for inactive

# input What did this assay record as the result for `COc1cc(NCCCN(CC(C)C)C2CCCC2)c2ncccc2c1` ?
# output no

# input What did this assay record as the result for `COc1ccccc1Nc1cc(O)c2c(=O)cc(-c3ccccc3)oc2c1` ?
# output no
